Data origin: paper PMC5540273

Recorded measurements of %Inh, one per entry
Test system: ACVR1B;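 further: KINOMEscan kinase panel screen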
SETUP_CONDITIONS: concentration: 1 μM, replicates: in singlicate; n = 1
Number first, unit second.

| COMPOUND | %Inh |
| --- | --- |
| COc1ccc(-c2oc3ncnc(N)c3c2-c2ccc(OC)cc2)cc1 | 0% |
| CNc1nccc(-c2c(-c3ccc(F)cc3)ncn2C2CCN(C)CC2)n1 | 0% |
| FC(F)(F)c1ccc(-c2cc(-c3c[nH]nc3-c3ccccn3)ccn2)cc1 | 46% |

Okay, next one:
Exercise: Tell me %Inh reported for O=C(Nc1ccccc1F)NC1CCN(c2ccnc(Nc3ccc(F)cc3)n2)C1 (stereo not shown)
Solution: 0%
